For each record, write down the corresponding % Competition.
- tested_on: T1, mFc tagged human SIRPα v1 ECD recombinant protein (human, UniProt P78324 31-373)
- T1 construct: extracellular domain; Bought from Biointron; not shown: mouse IgG Fc (mFc) tag
- test_summary: competitive ELISA binning, mFc-SIRPα v1 ECD; competitor 025c
Give bare numbers, in %.

>  <binder>
hu1H9G4 (antibody, V domains shown) VH: QVQLVQSGAEVKKPGASVKVSCKASGYTFTSYWITWVKQAPGQGLEWIGDIYPGSGSTNHIEKFKSKATLTVDTSISTAYMELSRLRSDDTAVYYCATGYGSSYGYFDYWGQGTLVTVSS VL: DIQMTQSPSSLSASVGDRVTITCRASENIYSYLAWYQQKPGKAPKLLIYTAKTLAEGVPSRFSGSGSGTDFTLTISSLQPEDFATYYCQHQYGPPFTFGQGTKLELK

>  <% Competition (%)>
14.5

$$$$
>  <binder>
042c (antibody, V domains shown, also called chimeric antibody 042c) VH: QIQLVQSGPELKKPGETVKISCRASGYTFTTYGMSWVKQAPGKGLRWMGWINTYSGVSTCADDFKGRFAFSLETSATTAYLQIHNLTNEDTATYFCARDPHSYGNSPAWFPYWGQGTLVTVSA VL: DIVMTQSQKFMSTTIRDRVSITCKASQNVGISVAWYQQKSGQSPKLLIYSASNRYTGVPDRFTGSGSGTDFTLTISNMQSEDLADYFCQQYSSYPLTFGSGTKLAIK

>  <% Competition (%)>
8.9

$$$$
>  <binder>
025c (antibody, V domains shown, also called chimeric antibody 025c; parental antibody of 025c) VH: EVQLQQSGAELVKPGASVKLSCTASGFNIKDYYMHWVKQRTEQGLEWIGRIDPEDGETKYAPKFQGKATITADTSSNTAYLQLSSLTSEDTAVYYCDRGLAYWGQGTLVTVSA VL: QIVLTQSPAIMSASPGEKVTLTCSASSSVSSSYLYWYQQKPGSSPKLWIYSTSNLASGVPARFSGSGSGTSYSLTISSMEAEDAASYFCHQWSSYPYTFGGGTKLEIK

>  <% Competition (%)>
93.5

$$$$

Look up % Competition: 073c (antibody, V domains shown, also called chimeric antibody 073c) VH: QIQLVQSGPELKKPGETVKISCKASGYTFTTYGMSWVKQAPGKGLKWMVWINTYSGVPTYADDFKGRFAFSLETSASTSYLQINNLKNEDTATYFCARDPHYYGSSPAWFVYWGQGTLVTVSA VL: DIVMTQSQKFMSTTIGDRVSITCEASQIVGIAVAWYQQKPGQSPKLLIYSASNRYTGVPDRFTGSGSGTDFTLTISNMQSEDLANYFCQQYSAYPFTFGSGTKLEVK
9.1
